EXPERIMENT NOTES: Cytotoxicity against MDCK cells assessed as cell viability after 72 hrs by MTS assay
Assay type: cell-based, Canis lupus familiaris
ASSAY SETUP: dog
PROPERTY: CC50 at 72 h

Solved cases below.
CC1CC23CC(C)CC2(C1)CN(C(=N)N)C3 (stereo not given) | > 20 µM
C1=CC[C@]23CCC[C@@]2(C1)CNC3 | > 100 µM
C=C1CC23CNCC2(C1)CC(=C)C3 (stereo not given) | > 100 µM
C1=CC[C@]23CC=CC[C@@]2(C1)CNC3 | > 100 µM
C=C1CC23CCCC2(CNC3)C1 (stereo not given) | > 100 µM
C1CC23CCCC2(C1)CNC3 (stereo not given) | > 100 µM
C1CC[C@]23CCCC[C@@]2(C1)CNC3 | > 100 µM
CC1=C(C)C[C@]23CNC[C@@]2(C1)CC(C)=C(C)C3 | > 100 µM

Note to self: CC50 at 72 h recorded for C1=CC2C3C4C5C=CC4C24CNCC54C13 was > 100 µM

Entry C1=CC[C@]23CCCC[C@@]2(C1)CNC3 — recorded CC50 at 72 h = > 100 µM

# CC50 at 72 h of CC1CC23CNCC2(C1)CC(C)C3 (stereo not given) = > 100 µM

Noted for N=C(N)N1C[C@@]23CC=CC[C@@]2(CCC3)C1 : its CC50 at 72 h reads > 100 µM

response.value for C=C1CC23CC(=C)CC2(C1)CN(C(=N)N)C3 (stereo not given) (field: CC50 at 72 h) = 20 µM

Short answer for C=C1CC23CC=CCC2(CNC3)C1 (stereo not given) : CC50 at 72 h was > 100 µM

Value of measured CC50 at 72 h for the entry N=C(N)N1CC23CCCC2(CCC3)C1 (stereo not given) : 100 µM
